# target entity: Progesterone receptor (Homo sapiens, UniProt P06401)
# Sequence (P06401 whole entry): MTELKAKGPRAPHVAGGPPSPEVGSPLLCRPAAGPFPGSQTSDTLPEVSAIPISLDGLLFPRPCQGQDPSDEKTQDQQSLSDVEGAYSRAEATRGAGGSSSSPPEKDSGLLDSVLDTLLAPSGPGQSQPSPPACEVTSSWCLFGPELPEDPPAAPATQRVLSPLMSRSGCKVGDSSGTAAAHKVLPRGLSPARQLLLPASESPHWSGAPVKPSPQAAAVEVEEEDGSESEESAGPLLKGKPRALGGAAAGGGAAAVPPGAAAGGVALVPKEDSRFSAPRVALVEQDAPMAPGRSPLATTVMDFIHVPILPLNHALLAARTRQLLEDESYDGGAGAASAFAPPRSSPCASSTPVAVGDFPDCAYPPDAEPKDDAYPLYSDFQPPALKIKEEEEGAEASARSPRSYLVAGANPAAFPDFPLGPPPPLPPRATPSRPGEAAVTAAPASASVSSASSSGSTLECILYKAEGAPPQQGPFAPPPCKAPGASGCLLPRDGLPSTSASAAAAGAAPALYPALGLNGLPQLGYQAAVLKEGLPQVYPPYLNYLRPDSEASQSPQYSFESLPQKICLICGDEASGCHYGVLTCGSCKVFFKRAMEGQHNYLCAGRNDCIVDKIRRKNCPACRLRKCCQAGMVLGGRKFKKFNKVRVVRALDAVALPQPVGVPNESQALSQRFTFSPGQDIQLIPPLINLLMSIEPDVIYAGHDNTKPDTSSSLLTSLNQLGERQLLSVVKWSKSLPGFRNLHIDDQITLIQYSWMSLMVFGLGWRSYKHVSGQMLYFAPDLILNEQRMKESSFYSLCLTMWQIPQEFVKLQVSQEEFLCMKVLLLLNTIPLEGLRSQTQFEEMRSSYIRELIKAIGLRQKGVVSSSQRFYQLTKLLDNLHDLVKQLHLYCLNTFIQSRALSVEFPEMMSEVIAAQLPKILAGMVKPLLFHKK
# method summary: Antagonist activity at progesterone receptor
# Assay type: functional
pIC50: −log10 of the molar value.
readout: pIC50

Inquiry: Answer briefly: pIC50 recorded on Progesterone receptor (Homo sapiens, UniProt P06401) for O=C1COc2ccc(C3=Nn4cnnc4SC3c3ccccc3)cc2N1 (stereo unspecified)
Reply text: < 5.00

###

# target entity: Mineralocorticoid receptor (Rattus norvegicus, UniProt P22199)
# method summary: Displacement of [3H]-aldosterone from rat mineralocorticoid receptor after 18 hrs by liquid scintillation counter analysis
readout: IC50 (nM)
Quick note: give the figure in nM, leave out the unit.

Inquiry: Please supply the value of reported IC50 for the item CC1(C)OC(=S)Nc2ccc(NS(=O)(=O)c3cccs3)cc21
Reply text: 21

###

# target entity: UniProt P08235
# Sequence (P08235 whole entry): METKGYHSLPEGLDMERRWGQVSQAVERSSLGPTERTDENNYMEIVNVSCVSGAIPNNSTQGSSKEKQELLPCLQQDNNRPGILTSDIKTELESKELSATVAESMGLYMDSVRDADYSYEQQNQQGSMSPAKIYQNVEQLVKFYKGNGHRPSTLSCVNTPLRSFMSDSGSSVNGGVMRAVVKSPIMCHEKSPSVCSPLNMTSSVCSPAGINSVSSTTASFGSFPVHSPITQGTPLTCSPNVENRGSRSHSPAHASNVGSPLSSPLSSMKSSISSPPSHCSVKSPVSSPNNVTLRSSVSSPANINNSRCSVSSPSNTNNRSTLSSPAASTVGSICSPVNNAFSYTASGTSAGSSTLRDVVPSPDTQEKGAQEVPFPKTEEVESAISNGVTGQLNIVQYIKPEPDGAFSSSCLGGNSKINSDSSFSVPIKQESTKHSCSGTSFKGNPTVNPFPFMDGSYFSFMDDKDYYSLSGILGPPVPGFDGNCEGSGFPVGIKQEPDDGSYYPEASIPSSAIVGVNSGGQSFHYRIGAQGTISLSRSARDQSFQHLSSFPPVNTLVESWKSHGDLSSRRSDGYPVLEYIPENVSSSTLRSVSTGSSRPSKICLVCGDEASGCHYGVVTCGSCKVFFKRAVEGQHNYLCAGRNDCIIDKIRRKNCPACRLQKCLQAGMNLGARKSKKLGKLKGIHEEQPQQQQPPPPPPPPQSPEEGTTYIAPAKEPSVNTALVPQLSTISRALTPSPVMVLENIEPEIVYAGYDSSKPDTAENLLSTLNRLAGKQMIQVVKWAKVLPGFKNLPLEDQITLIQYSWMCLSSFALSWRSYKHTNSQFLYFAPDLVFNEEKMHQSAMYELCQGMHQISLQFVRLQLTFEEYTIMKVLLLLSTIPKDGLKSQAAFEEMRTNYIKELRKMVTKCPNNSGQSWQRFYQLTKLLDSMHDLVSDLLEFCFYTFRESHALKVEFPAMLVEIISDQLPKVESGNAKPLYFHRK
# method summary: Antagonist activity at mineralocorticoid receptor expressed in african green monkey COS7 cells after 18 hrs by luciferase reporter gene assay
# Format: functional, cell-based, COS-7
readout: pIC50
Scale note: pIC50 = -log10(concentration in M).

Inquiry: Please supply the value of reported pIC50 for the item CC1(C)OC(=S)Nc2ccc(NS(=O)(=O)c3cccs3)cc21
Reply text: 6.89

###

# target entity: Androgen receptor (Homo sapiens)
# Sequence (P10275 whole entry): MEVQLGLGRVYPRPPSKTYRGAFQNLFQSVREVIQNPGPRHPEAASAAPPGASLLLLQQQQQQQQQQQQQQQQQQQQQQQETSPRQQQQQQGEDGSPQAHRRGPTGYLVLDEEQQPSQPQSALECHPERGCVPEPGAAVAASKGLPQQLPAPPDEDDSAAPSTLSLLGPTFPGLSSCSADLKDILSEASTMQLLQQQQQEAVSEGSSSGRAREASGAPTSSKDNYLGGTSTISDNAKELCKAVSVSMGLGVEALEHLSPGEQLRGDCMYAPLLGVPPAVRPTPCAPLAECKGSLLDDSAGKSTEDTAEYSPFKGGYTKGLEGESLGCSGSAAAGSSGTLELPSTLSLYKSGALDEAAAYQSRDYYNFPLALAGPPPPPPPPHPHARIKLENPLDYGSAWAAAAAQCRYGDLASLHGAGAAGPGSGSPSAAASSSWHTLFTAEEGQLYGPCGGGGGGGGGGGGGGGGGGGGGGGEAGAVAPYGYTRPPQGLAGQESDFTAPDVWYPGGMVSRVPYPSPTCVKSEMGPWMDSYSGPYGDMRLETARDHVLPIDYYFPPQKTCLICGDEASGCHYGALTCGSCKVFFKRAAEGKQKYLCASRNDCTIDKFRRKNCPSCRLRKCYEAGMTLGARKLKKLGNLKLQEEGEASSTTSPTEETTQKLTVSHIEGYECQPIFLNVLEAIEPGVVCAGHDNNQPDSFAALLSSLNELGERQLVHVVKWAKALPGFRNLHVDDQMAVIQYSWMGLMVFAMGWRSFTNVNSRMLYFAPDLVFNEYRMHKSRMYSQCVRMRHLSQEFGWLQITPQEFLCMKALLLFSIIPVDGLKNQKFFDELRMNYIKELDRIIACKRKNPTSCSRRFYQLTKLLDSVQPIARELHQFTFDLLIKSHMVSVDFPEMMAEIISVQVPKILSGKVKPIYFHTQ
# method summary: Antagonist activity against androgen receptor expressed in CHOK1 cells after 10 to 30 mins by luciferase reporter gene assay
readout: IC50
A complete answer gives the number followed by the unit.

Inquiry: Please supply the value of reported IC50 for the item CCOC(=O)C1=C(C)NC(C)=C(C(C)=O)[C@H]1c1cccc2c(=O)cc(C)oc12
Reply text: 4.44 µM

###

# target entity: Mineralocorticoid receptor (Rattus norvegicus, UniProt P22199)
# Sequence (P22199 whole entry): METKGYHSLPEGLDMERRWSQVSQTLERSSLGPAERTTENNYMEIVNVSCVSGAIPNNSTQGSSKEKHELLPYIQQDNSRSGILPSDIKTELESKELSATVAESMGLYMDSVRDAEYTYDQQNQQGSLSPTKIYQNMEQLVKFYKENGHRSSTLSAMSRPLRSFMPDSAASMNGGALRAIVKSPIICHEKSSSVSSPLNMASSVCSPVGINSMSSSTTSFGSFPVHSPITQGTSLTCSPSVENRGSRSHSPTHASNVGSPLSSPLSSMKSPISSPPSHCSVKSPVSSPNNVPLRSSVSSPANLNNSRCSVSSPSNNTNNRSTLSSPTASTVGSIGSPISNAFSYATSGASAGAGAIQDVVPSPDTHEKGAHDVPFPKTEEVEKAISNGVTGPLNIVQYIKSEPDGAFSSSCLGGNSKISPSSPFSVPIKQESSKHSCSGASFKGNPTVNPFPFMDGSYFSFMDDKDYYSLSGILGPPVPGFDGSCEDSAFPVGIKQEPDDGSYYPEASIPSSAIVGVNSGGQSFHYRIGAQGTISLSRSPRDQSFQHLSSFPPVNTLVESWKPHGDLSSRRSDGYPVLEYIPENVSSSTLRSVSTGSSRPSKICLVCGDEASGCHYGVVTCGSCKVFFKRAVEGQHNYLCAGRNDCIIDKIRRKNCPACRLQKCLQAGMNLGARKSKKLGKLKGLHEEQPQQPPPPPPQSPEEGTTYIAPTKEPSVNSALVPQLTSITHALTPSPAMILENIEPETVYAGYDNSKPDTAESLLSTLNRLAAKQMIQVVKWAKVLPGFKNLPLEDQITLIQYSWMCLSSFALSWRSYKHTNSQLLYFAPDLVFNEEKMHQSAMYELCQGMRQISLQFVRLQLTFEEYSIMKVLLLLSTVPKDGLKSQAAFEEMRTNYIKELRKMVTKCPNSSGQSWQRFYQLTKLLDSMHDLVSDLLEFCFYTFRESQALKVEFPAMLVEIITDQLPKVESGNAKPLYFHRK
# method summary: Displacement of [3H]Aldosterone C from rat mineralocorticoid receptor by liquid scintillation counter analysis
readout: IC50
A complete answer gives the number followed by the unit.

Inquiry: Answer briefly: IC50 recorded on Mineralocorticoid receptor (Rattus norvegicus, UniProt P22199) for COc1cc(C(=O)Nc2ccc(-c3ccccc3OC(F)(F)F)c(CCN(C)C3CC3)c2)ccc1S(N)(=O)=O
Reply text: 22 nM

###

# target entity: UniProtKB P04150
# Sequence (P04150 whole entry): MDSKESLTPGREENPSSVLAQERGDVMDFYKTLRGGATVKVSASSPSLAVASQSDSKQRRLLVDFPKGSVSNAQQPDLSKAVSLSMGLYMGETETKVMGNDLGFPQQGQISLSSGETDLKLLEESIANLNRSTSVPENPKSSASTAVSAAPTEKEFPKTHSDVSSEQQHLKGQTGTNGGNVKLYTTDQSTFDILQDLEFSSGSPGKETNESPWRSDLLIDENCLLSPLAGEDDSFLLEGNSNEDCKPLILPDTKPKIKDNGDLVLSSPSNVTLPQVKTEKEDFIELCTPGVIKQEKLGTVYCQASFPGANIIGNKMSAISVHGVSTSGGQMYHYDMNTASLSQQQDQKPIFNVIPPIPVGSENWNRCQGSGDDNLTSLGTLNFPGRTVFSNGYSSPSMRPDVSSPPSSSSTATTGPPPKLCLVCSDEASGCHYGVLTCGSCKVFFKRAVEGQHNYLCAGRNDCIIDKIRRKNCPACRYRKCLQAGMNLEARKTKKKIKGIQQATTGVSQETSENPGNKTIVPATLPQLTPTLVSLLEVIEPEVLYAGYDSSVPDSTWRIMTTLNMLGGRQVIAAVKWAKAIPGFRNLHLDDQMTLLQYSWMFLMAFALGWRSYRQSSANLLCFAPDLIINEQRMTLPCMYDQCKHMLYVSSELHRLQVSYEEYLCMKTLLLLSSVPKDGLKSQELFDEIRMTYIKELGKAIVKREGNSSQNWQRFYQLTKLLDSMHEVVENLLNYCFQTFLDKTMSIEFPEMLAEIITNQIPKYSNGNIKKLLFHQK
# method summary: Antagonist activity against glucocorticoid receptor expressed in CHOK1 cells after 10 to 30 mins by luciferase reporter gene assay
readout: pIC50
Scale note: pIC50 = -log10(concentration in M).

Inquiry: Please supply the value of reported pIC50 for the item CCOC(=O)C1=C(C)NC(C)=C(C(C)=O)[C@H]1c1cccc2c(=O)cc(C)oc12
Reply text: 5.26

###

# method summary: Protein binding in plasma
# Format: ADME, cell-free
# protocol conditions: read-out: PPB (converted)
readout: fraction unbound
Output spec: single numeric token, no unit.

{"columns": ["molecule smiles", "fraction unbound"],
 "data": [
  ["CC(=O)S[C@@H]1CC2=CC(=O)CC[C@]2(C)[C@H]2CC[C@@]3(C)[C@@H](CC[C@@]34CCC(=O)O4)[C@H]12", 0.51]
]}

Next item in the queue.
Inquiry: Please supply the value of reported fraction unbound for the item COC(=O)[C@@H]1CC2=CC(=O)CC[C@]2(C)[C@@]23O[C@@H]2C[C@@]2(C)[C@@H](CC[C@@]24CCC(=O)O4)[C@H]13
Reply text: 0.1
